# Test system: RAW 264.7
# methodNotes: Cytotoxicity of α-MG
# Assay type: cell-based, murine
# conditionSet: read-out: IC50 (cytotoxicity); RAW 264.7, 24 h, 10% FBS delivery
measuredEndpoint: IC50 (µM)

compound | measuredEndpoint | endpointResult
COc1c(O)cc2oc3cc(O)c(CC=C(C)C)c(O)c3c(=O)c2c1CC=C(C)C [α-MG, α-mangostin] | IC50 | 23

====

# Test system: MDM
# methodNotes: Cytotoxicity of α-MG
# Type: cell-based, human
# conditionSet: read-out: IC50 (cytotoxicity), 24 h, 10% FBS delivery
pIC50: −log10 of the molar value.

molecule | pIC50
COc1c(O)cc2oc3cc(O)c(CC=C(C)C)c(O)c3c(=O)c2c1CC=C(C)C [α-MG, α-mangostin] | < 4.92

====

# System: THP-1
# methodNotes: Cytotoxicity of α-MG
# Type: cell-based, human
# conditionSet: read-out: IC50 (cytotoxicity); THP-1, 8 h, 10% FBS delivery
measuredEndpoint: IC50 (µM)

smilesData | endpointResult
COc1c(O)cc2oc3cc(O)c(CC=C(C)C)c(O)c3c(=O)c2c1CC=C(C)C | 23
